- Tested on: cells
- ASSAY NAME: Cytotoxicity test (MTT)
- Format: cell-based
- CONDITION PARAMETERS: MC3T3-E1 cells, 10^−6M, 72 hrs, compared with the control group
We begin with a simple list: items and their reported Survival rates of the cells.
Answer in %, number only, no unit symbol.

COMPOUND | ASSAYED TARGET | RECORDED METRIC | REPORTED VALUE
CCc1sc(N(CC)Cc2cccnc2)nc1-c1ccc(OCCCCCOc2ccc(C(=N)NO)cc2)cc1 | cells | Survival rates of the cells | 48.5
CCCNc1nc(-c2ccc(OCCCCCOc3ccc(C(=N)NO)cc3)cc2)c(CC)s1 | cells | Survival rates of the cells | 77.1

Summary for this compound, "Cc1nc(-c2ccc(OCCCCCOc3ccc(C(=N)NO)cc3)cc2)c(CC2CCCC2)s1" : Survival rates of the cells is 75.9

Summary for this compound, "CC(C)c1sc(N(C)Cc2cccnc2)nc1-c1ccc(OCCCCCOc2ccc(C(=N)NO)cc2)cc1" : Survival rates of the cells is 52.8

Summary for this compound, "CCc1nc(-c2ccc(OCCCCCOc3ccc(C(=N)NO)cc3)cc2)c(C)s1" : Survival rates of the cells is 87.2

###

- System: osteoclast differentiation
- ASSAY NAME: Inhibitory effects on osteoclast differentiation (co-culture of bone marrow cells with osteoblast, TRAP staining)
- Type: cell-based, mice
- CONDITION PARAMETERS: Mus musculus, Osteoclast, 168 h; 1 m; co-culture of bone marrow cells and osteoblast, 7 days, TRAP-positive osteoclasts versus controls; read-out: % inhibitory activity on osteoclastogenesis
Binning rule for recorded inhibition at 1 µM: low bin (below 60%), mid bin (60% to below 80%), high bin (80% or more)

The following molecules have reported results that may help.
MOLECULE | LABEL CLASS
CCCNc1nc(-c2ccc(OCCCCCOc3ccc(C(=N)NO)cc3)cc2)c(CC)s1 | high bin
CCc1sc(N(C)Cc2cccnc2)nc1-c1ccc(OCCCOc2ccc(C(=N)NO)cc2)cc1 | high bin
CCc1sc(N(CC)CCO)nc1-c1ccc(OCCCCCOc2ccc(C(=N)NO)cc2)cc1 | low bin
CCN(CC)c1nc(-c2ccc(OCCCCCOc3ccc(C(=N)NO)cc3)cc2)c(CC2CCCC2)s1 | high bin
N=C(NO)c1ccc(OCCCCCOc2ccc(-c3nc(N)sc3C3CCCC3)cc2)cc1 | low bin

# input Band assignment needed for "CCc1sc(CN)nc1-c1ccc(OCCCCCOc2ccc(C(=N)NO)cc2)cc1" please.
# output low bin

###

- Test system: osteoclast differentiation
- ASSAY NAME: Inhibitory effects on osteoclast differentiation (co-culture of bone marrow cells with osteoblast, TRAP staining)
- Format: cell-based, mice
- CONDITION PARAMETERS: Mus musculus, Osteoclast, 168 h; 1 m; co-culture of bone marrow cells and osteoblast, 7 days, TRAP-positive osteoclasts versus controls; read-out: % inhibitory activity on osteoclastogenesis
RECORDED METRIC: inhibition at 1 µM
Record the result as number plus unit.

COMPOUND | ASSAYED TARGET | RECORDED METRIC | REPORTED VALUE
CCNc1nc(-c2ccc(OCCCCCOc3ccc(C(=N)NO)cc3)cc2)c(C(C)C)s1 [Example 104] | osteoclast differentiation | inhibition at 1 µM | 40%
N=C(NO)c1ccc(OCc2ccc(COc3ccc(-c4nc(C5CCCCC5)sc4CC4CCCC4)cc3)cc2)cc1 [Example 210] | osteoclast differentiation | inhibition at 1 µM | 68.8%
CCCCc1sc(N(CCC)CCC)nc1-c1ccc(OCCCCCOc2ccc(C(=N)NO)cc2)cc1 [Example 146] | osteoclast differentiation | inhibition at 1 µM | 94.4%
CNc1nc(-c2ccc(OCCCCCOc3ccc(C(=N)NO)cc3)cc2)c(C)s1 [Example 86] | osteoclast differentiation | inhibition at 1 µM | 52.9%
CCCCc1sc(NC(=N)N)nc1-c1ccc(OCCCCCOc2ccc(C(=N)NO)cc2)cc1 [Example 64] | osteoclast differentiation | inhibition at 1 µM | 43.7%
Cc1nc(-c2ccc(OCCNCCOc3ccc(C(=N)NO)cc3)cc2)c(C(C)C)s1 [Example 186] | osteoclast differentiation | inhibition at 1 µM | 71%

Summary for this compound, CC(C)c1sc(N(C)C)nc1-c1ccc(OCCCCCOc2ccc(C(=N)NO)cc2)cc1 [Example 161] : inhibition at 1 µM is 89.1%

Summary for this compound, Cc1sc(N(CCO)CCO)nc1-c1ccc(OCCCCCOc2ccc(C(=N)NO)cc2)cc1 [Example 128] : inhibition at 1 µM is 75.5%
